Data provenance is patent US20250276077A1.

Item-by-item account of ADCC - EC50 (nM), Trial 2, A549
Biological target: Human EphA2 (ephrin receptor A2) on cells (human, UniProt P29317 25-976)
Sequence (P29317 25-976): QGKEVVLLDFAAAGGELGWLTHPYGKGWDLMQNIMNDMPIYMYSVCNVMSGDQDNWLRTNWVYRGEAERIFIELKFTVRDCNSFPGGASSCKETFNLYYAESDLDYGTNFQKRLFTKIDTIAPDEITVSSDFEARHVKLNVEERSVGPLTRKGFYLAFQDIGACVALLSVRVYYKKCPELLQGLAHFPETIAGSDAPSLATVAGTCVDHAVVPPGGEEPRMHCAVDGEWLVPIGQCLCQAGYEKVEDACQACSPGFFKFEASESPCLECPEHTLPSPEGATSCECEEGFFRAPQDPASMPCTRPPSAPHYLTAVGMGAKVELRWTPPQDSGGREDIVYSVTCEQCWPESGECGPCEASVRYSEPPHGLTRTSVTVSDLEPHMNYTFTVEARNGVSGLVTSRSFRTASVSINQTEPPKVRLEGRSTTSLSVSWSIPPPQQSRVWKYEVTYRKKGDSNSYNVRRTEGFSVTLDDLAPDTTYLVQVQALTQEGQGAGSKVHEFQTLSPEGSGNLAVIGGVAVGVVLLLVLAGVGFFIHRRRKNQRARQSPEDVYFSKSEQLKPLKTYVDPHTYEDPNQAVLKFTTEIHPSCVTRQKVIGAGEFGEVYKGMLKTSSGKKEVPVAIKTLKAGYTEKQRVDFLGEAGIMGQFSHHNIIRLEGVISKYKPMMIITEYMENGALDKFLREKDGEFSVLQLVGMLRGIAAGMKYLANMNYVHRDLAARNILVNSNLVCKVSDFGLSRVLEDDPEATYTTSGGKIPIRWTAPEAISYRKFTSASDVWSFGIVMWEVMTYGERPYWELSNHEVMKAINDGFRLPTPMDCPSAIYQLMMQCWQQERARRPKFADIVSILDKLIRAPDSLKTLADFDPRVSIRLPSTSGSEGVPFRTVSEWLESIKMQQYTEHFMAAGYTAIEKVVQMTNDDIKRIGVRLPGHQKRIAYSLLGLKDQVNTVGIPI
Test: cell-based or functional assay
State the answer as a number, implicitly in nM.

Example entries and their recorded answers appear below.
binder	ADCC - EC50 (nM), Trial 2, A549
AB-010680 (antibody, V domains shown) VH: QVQLQQWGAGLLKPSETLSLTCAVYGGSFSGYYWSWIRQPPGKGLEWIGEINHRGSINYNNYNPSLKSRVTISVDTSKNQFSLKLSSVTAADTAVYYCAKPLRPHCTNGVCYSGDAFDIWGQGTMVTVAS VL: SYVLTQPPSVSVAPGQTARITCGGNNIGYMNVHWYQQKPGQAPVLVVYDDSDRPSGIPEQFSGSNSGNTATLTISRVEAGDEADYYCQVWDSSSDHVVFGGGTKLTVL	0.031
AB-010679 (antibody, V domains shown) VH: QVQLQQWGAGLLKPSETLSLTCAVYGGSFSGYYWSWIRQPPGKGLEWIGEINHRGSINYNNYNPSLKSRVTISVDTSKNQFSLKLSSVTAADTAVYYCAKPLRPHCINGVCYSGDAFDIWGQGTMVTVAS VL: SYVLTQPPSVSVAPGQTARITCGGNNIGYKNVHWYQQKPGQAPVLVVYDDSDRPSGIPEQFSGSNSGNTATLTISRVEAGDEADYYCQVWDSSSDHVVFGGGTKLTVL	0.04
AB-010665 (antibody, V domains shown) VH: QVQLQQWGAGLLKPSETLSLTCAVYGGSFSDYYWSWIRQPPGKGLEWIGEINHRGSINYNNYNPSLKSRVTISVDTSKNQFSLKLSSVTAADTAVYYCAKPLRPHCINGVCYSGDAFDIWGQGTMVTVAS VL: SYVLTQPPSVSVAPGQTARITCGGNNIGYKNVHWYQQKPGQAPVLVVYDDSDRPSGIPEQFSGSNSGNTATLTISRVEAGDEADYYCQVWDSSSDHVVFGGGTKLTVL	0.14
AB-010357 (antibody, mouse IgG2a, V domains shown) VH: QVQLQQWGAGLLKPSETLSLTCAVYGGSFSDYYWSWIRQPPGKGLEWIGEINHRGSINYNNYNPSLKSRVTISVDTSKNQFSLKLSSVTAADTAVYYCAKPLRPHCTNGVCYSGDAFDIWGQGTMVTVAS VL: SYVLTQPPSVSVAPGQTARITCGGNNIGSKNVHWYQQKPGQAPVLVVYDDSDRPSGIPEQFSGSNSGNTATLTISRVEAGDEADYYCQVWDSSSDHVVFGGGTKLTVL	9.6

Alright, here's another binder for you.
Qu. Form field: reported ADCC - EC50 (nM), Trial 2, A549 of AB-010666 (antibody, V domains shown) VH: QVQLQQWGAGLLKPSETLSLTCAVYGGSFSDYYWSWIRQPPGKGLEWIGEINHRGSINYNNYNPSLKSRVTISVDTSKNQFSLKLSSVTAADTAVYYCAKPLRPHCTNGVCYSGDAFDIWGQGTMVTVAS VL: SYVLTQPPSVSVAPGQTARITCGGNNIGYMNVHWYQQKPGQAPVLVVYDDSDRPSGIPEQFSGSNSGNTATLTISRVEAGDEADYYCQVWDSSSDHVVFGGGTKLTVL
Ans. 0.16
